Data provenance: ChEMBL document CHEMBL3507680

Experiment: Human HepG2 cell viability assay in 384 well format
Type: toxicity, cell-based
Parameters: dose 125 nL, time 70.5 hour; concentration not given beside the values
Details: HepG2 cells, read-out: Inhibition
measured-endpoint: cytotoxicity at 70.5 h (%)
One number for each entry, in %.

Guide cases for cytotoxicity at 70.5 h, answers given:
CCc1nccn1C1CCCN(C(=O)c2ccc(C(=O)NC)nc2)C1 (stereo unspecified)	-5.35
Cn1ncc2c(=O)[nH]c(CN3CCCC3Cc3ccc(F)cc3)nc21 (stereo unspecified)	1.17
CC(C)N1CCC(C(=O)N2CCc3c(nc(CC4CC4)[nH]c3=O)C2)CC1	-7.62

Go through the list and state cytotoxicity at 70.5 h for each entry.
1. Cc1nc(CN2CCN(C)C(=O)C23CCN(CC2CCCC2)CC3)cs1
2. Cc1ccc(OCc2occc2C(=O)N2CCOC(C(=O)O)C2)cc1 (stereo unspecified)
3. CN(C)C(=O)c1ccc(C(C(=O)O)N(C)Cc2ccccc2Cl)cc1 (stereo unspecified)

Result string:
1: -9.21; 2: 11.5; 3: -8.81
